- study.target: T1, biotinylated Fc-fused monkey CD137 (monkey, biotin on the AviTag)
- T1 construct: also called cyCD137-Fc-BAP
- T1 sequence (chain, as listed by the source limits assumed): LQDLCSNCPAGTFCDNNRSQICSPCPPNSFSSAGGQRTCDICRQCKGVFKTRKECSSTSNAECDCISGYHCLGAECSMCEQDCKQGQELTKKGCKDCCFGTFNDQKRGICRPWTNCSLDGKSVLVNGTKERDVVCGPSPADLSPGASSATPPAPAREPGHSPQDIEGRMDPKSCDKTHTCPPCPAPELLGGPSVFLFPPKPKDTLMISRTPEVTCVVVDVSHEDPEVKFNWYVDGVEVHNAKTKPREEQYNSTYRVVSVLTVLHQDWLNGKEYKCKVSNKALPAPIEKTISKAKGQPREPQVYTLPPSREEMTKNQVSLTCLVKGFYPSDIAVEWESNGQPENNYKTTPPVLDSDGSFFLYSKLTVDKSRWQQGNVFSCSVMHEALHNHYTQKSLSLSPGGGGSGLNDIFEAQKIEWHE
- assay.summary: ELISA, 1 mM ADP, 10 ug/mL
- Set-up: reference not given here
Label true (1) when absorbance ratio < 30; otherwise false (0).

Solved entries (count: 3):
dBBAT119-P253 (antibody, human IgG1, lambda, V domains shown, also called dBBAT119H-P253/dBBAT119L-LamLib) VH: EVQLVESGGDLVKPGGGLRLSCAASGFTFSTFTMNWVRQAPGKGLEWVSSISSRSNYKSYADSVKGRFTISRDNAKNSLYLQMNSLRAEDTAVYYCARYGAKNFMNWVFDYWGQGTLVTVSS VL: QSALTQPPSASGSPGQTVTISCTGTSTDVGFYNYVSWYQQHPGKAPKLMIYYTSKRPSGVPDRFSGSKSGNTASLTVSGLQAEDEADYFCSSYRYDHQVSFGGGTKLTVLG ... false (0)
dBBAT091-P253 (antibody, human IgG1, lambda, V domains shown) VH: EVQLVESGGDLVKPGGGLRLSCAASGFTFSSYTMNWVRQAPGKGLEWVSSISSRSNYIDYADSVKGRFTISRDNAKNSLYLQMNSLRAEDTAVYYCARFGKKNDMNWVFDYWGQGTLVTVSS VL: QSALTQPPSASGSPGQTVTISCTGTSTDVGFYNYVSWYQQHPGKAPKLMIYEGSKRPSGVPDRFSGSKSGNTASLTVSGLQAEDEADYFCSSYEYTESVLFGGGTKLTVLG ... true (1)
dBBAT134-P253 (antibody, human IgG1, lambda, V domains shown) VH: EVQLVESGGDLVKPGGGLRLSCAASGFTFSSYTMNWVRQAPGKGLEWVSSISSRSNYADYADSVKGRFTISRDNAKNSLYLQMNSLRAEDTAVYYCARYGAKNEMNWVFDYWGQGTLVTVSS VL: QSALTQPPSASGSPGQTVTISCTGTSTDVGFYNYVSWYQQHPGKAPKLMIYEVSKRPSGVPDRFSGSKSGNTASLTVSGLQAEDEADYFCSSYTYDQQLMFGGGTKLTVLG ... false (0)

is_below(absorbance ratio, 30) for dBBAT053-P253 (antibody, human IgG1, lambda, V domains shown) VH: EVQLVESGGDLVKPGGGLRLSCAASGFTFSTFTMNWVRQAPGKGLEWVSSISSRSNYIYYADSVKGRFTISRDNAKNSLYLQMNSLRAEDTAVYYCARFGLKNEMNWVFDYWGQGTLVTVSS VL: QSALTQPPSASGSPGQTVTISCTGTSSDVGFYNYVSWYQQHPGKAPKLMIYEGSKKPSGVPDRFSGSKSGNTASLTVSGLQAEDEADYFCSVYSYIYYVLFGGGTKLTVLG ?
true (1)
